Test system: UACC-62
Experiment: NCI tumour cell line growth inhibition, 48 h
Calls of active or inactive are those of the source. No stated cut-off is given here; in the data, active = GI50 up to about 1.1 µM and inactive = higher.
For each record, write down the corresponding GI50.

Query: Name the recorded GI50 of the molecule listed here: COC(=O)/C=C(\C)CC/C=C(\C)CCC(O)C(C)(C)O (stereo not drawn)
Response: 25.1 µM (inactive)

Query: Name the recorded GI50 of the molecule listed here: COC(=O)/C=C1/CCC2[C@@H](C(=O)CC3[C@]2(C)CCC[C@@]3(C)C(=O)OC)C1C (stereo partly drawn)
Response: 10.7 µM (inactive)

Query: Name the recorded GI50 of the molecule listed here: CCOC(=O)c1nnn(CCCCO)c1C(=O)OCC
Response: > 100 µM (inactive)

Query: Name the recorded GI50 of the molecule listed here: Cc1nc(C(N)=O)c(N)n1CCN1CCN(C(=O)CCCCCCCCCCNC2NC=Nc3[nH]cnc32)CC1 (stereo not drawn)
Response: 29.8 µM (inactive)

Query: Name the recorded GI50 of the molecule listed here: Cc1ccc2c(c1)C(C(=O)N[C@@H]1C(=O)N3[C@@H]1SC(C)(C)[C@@H]3C(=O)O)OCCC2 (stereo partly drawn)
Response: > 100 µM (inactive)

Query: Name the recorded GI50 of the molecule listed here: CC(=O)OC1COC(n2c(=S)n(-c3ccccc3)c(=O)c3ccccc32)C(OC(C)=O)C1OC(C)=O (stereo not drawn)
Response: 4.05 µM (inactive)

Query: Name the recorded GI50 of the molecule listed here: CC1(C)CC(=O)C(CC2C(=O)CCCC2=O)C(=O)C1
Response: > 100 µM (inactive)

Query: Name the recorded GI50 of the molecule listed here: N#CSC#CCCC#CSC#N
Response: 17 µM (inactive)

Query: Name the recorded GI50 of the molecule listed here: C=C[C@H]1CN2CC[C@H]1C[C@@H]2[C@@H](O)c1ccnc2ccccc12 [CINCHONINE]
Response: > 100 µM (inactive)

Query: Name the recorded GI50 of the molecule listed here: OCCCc1ccc2c(c1)[C@H](CO)[C@@H](c1ccc(O)cc1)O2
Response: 51.9 µM (inactive)

Query: Name the recorded GI50 of the molecule listed here: CCC12CCCN(Cc3ccccc3)C1c1c(n(C)c3ccccc13)C(C(=O)OC)C2 (stereo not drawn)
Response: > 239 µM (inactive)

Query: Name the recorded GI50 of the molecule listed here: Cc1ccc(OCC2OC(n3cnc4c(Cl)nc(Nc5cc(Cl)cc(Cl)c5)nc43)CC2Oc2ccc(C)cc2)cc1 (stereo not drawn)
Response: > 100 µM (inactive)

Query: Name the recorded GI50 of the molecule listed here: COC(=O)C1(c2cc3ccccc3n2S(=O)(=O)c2ccccc2)CC2C=CC1NC2 (stereo not drawn)
Response: 1.62 µM (inactive)
